Tested on: Zika virus NS2B-NS3 protease (linked)
assay summary: 384 well plate NINDS AMC confirmatory qHTS for Zika virus inhibitors (AID 1347163); further: nearly all actives have a fitted effect of over 50% in size
experimental parameters: Recombinant NS2B-NS3 protease, Ac-VKTGKR-AMC fluorescence; series mostly up to 100 µM
Inconclusive results are not listed. Calls of active or inactive are those of the source. The call rests on the fitted dose curve; in most records, active means well fitted inhibition curve with a large enough effect; inconclusive means small, poorly fitted or top-dose-only effect; inactive means no such curve, though single readings can be large or run the other way.
Write down the outcome that applies. Available outcomes: active, inactive

{"smiles str": "O=C(Nc1ccc(S(=O)(=O)N2CCOCC2)cc1)c1cc(Cl)ccc1NS(=O)(=O)c1ccc(Cl)s1", "cat": "inactive"}

Q: Outcome? `CN(C)[C@@H]1C(=O)C(C(N)=O)=C(O)[C@@]2(O)C(=O)C3=C(O)c4c(O)cccc4C[C@H]3C[C@@H]12`
A: active

Q: Outcome? `O=C1NC(=O)/C(=C/c2ccc3c(c2)OC(F)(F)O3)S1`
A: active

Q: Outcome? `CCC(=O)O[C@H]1[C@H](O[C@@H]2[C@@H](C)[C@H](O[C@H]3C[C@@](C)(OC)[C@@H](O)[C@H](C)O3)[C@@H](C)C(=O)O[C@H](CC)[C@@](C)(O)[C@H](O)[C@@H](C)C(=O)[C@H](C)C[C@@]2(C)O)O[C@H](C)C[C@@H]1N(C)C`
A: active

* * *

assay summary: qHTS of pediatric cancer cell lines to identify multiple opportunities for drug repurposing: Confirmatory screen for RD cells (AID 1347124);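 further: cells exposed to compound for 48 h before viability readout; nearly all actives have a fitted effect of over 65% in size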
experimental parameters: RD rhabdomyosarcoma cell viability; series mostly up to 45.9 µM
Inconclusive results are not listed. The source made the active and inactive calls. Calls follow the shape of the dose curve; as a rule, active = well fitted cell-killing curve with a large enough effect; inconclusive = small, poorly fitted or top-dose-only effect, or effect the other way; inactive = no such curve, though single readings can be large or run the other way.
Write down the outcome that applies. Available outcomes: label 1 = active, label 0 = inactive

{"compound": "CC(=O)[C@@]1(O)CC[C@H]2[C@@H]3C[C@H](C)C4=CC(=O)CC[C@]4(C)[C@H]3CC[C@@]21C", "cat": "label 1"}
{"compound": "Cc1nc(N)nc(N)c1-c1ccc(Cl)c(Cl)c1", "cat": "label 1"}
{"compound": "C[C@]12CCC(=O)C=C1CC[C@@H]1[C@@H]2[C@@H](O)C[C@@]2(C)[C@H]1CC[C@]2(O)C(=O)COC(=O)CCC(=O)O", "cat": "label 0"}
{"compound": "CCOC(=O)O[C@]1(C(=O)OCCl)CC[C@H]2[C@@H]3CCC4=CC(=O)C=C[C@]4(C)[C@H]3[C@@H](O)C[C@@]21C", "cat": "label 0"}
{"compound": "Cc1ccc(C(=O)Oc2ccc(C(O)CNC(C)(C)C)cc2OC(=O)c2ccc(C)cc2)cc1 (stereo not drawn)", "cat": "label 0"}
{"compound": "CN(C)CCN(Cc1ccsc1)c1ccccn1", "cat": "label 0"}
{"compound": "N=C(N)c1ccc(OCCCOc2ccc(C(=N)N)cc2)cc1", "cat": "label 0"}
{"compound": "Nc1ccc2cc3ccc(N)cc3nc2c1", "cat": "label 1"}
{"compound": "CC(=O)OCC(=O)[C@@]1(O)[C@H](OC(C)=O)C[C@H]2[C@@H]3CCC4=CC(=O)C=C[C@]4(C)[C@@]3(F)[C@@H](O)C[C@@]21C", "cat": "label 0"}
{"compound": "CCCC(=O)O[C@]1(C(=O)CCl)[C@@H](C)C[C@H]2[C@@H]3CCC4=CC(=O)C=C[C@]4(C)[C@@]3(F)C(=O)C[C@@]21C", "cat": "label 0"}

Please find the next compound below.
Q: Outcome? `CC(=O)O[C@@H]1C(=O)O[C@@H]2[C@H]1OC(=O)[C@@H]2OC(C)=O`
A: label 1

* * *

assay summary: Primary qHTS for inhibitors of nuclear receptor binding SET domain protein 2 (NSD2) in an isogenic RCH-ACV NSD2 p.E1099K mutant (9B) (AID 1645876); further: nearly all actives have a fitted effect of over 70% in size
experimental parameters: RCH-ACV (leukaemia line) NSD2 E1099K (9B) viability, CellTiter-Glo, 72 h; series mostly up to 44.9 µM
Inconclusive results are not listed. Calls of active or inactive are those of the source. The call rests on the fitted dose curve; in most records, active means well fitted inhibition curve with a large enough effect; inconclusive means small, poorly fitted or top-dose-only effect; inactive means flat fitted curve, though single readings scatter.
Write down the outcome that applies. Available outcomes: active, inactive

Field: example entries. Status: answers known.
{"compound": "CCOC(=O)NNc1nncc2ccccc12", "cat": "inactive"}
{"compound": "O=C(Oc1ccccc1)c1cccc(C(=O)Oc2ccccc2)c1", "cat": "inactive"}
{"compound": "Nc1c[n+](N2CCOCC2)no1", "cat": "inactive"}
{"compound": "[O-][n+]1cccc(/C(Cl)=N/OC[C@@H](O)CN2CCCCC2)c1", "cat": "inactive"}
{"compound": "CCCCCCCCCCCCCCCC[N+](C)(C)Cc1ccccc1", "cat": "active"}

Q: Outcome? `Cc1sccc1Br`
A: inactive

Q: Outcome? `O=C(CCCl)NCCc1ccccc1`
A: inactive

Q: Outcome? `OCCc1ccccc1`
A: inactive

Q: Outcome? `CCOC(=O)C(=O)CCc1ccccc1`
A: inactive

Q: Outcome? `Brc1ccccc1-c1ccccc1`
A: inactive

Q: Outcome? `COC(=O)c1cc(S(N)(=O)=O)ccc1OC`
A: inactive

Q: Outcome? `CC(C)(C)CC(=O)OCC(=O)[C@@]1(O)CC[C@H]2[C@@H]3CCC4=CC(=O)C=C[C@]4(C)[C@H]3[C@@H](O)C[C@@]21C`
A: active

Q: Outcome? `Nc1ccc2c(c1)CN1C(=O)c3ccccc3C1=N2`
A: active

Q: Outcome? O=C1NC2CCCCN2C12CCN(CCCN1c3ccccc3CCc3ccc(Cl)cc31)CC2 (stereo not given)
A: active

Q: Outcome? `O=C(O)Cn1cnnn1`
A: inactive

* * *

Test system: NIH3T3
assay summary: Cytotoxic Profiling of Annotated Libraries Using Quantitative High-Throughput Screening (AID 1296008); further: nearly all actives have a fitted effect of over 60% in size
experimental parameters: Five cell lines viability, CellTiter-Glo ATP luminescence, 48-72 h
Records with an inconclusive call do not appear. Active and inactive are the calls of the source. The call rests on the fitted dose curve; in most records, active means well fitted inhibition curve with a large enough effect; inconclusive means small, poorly fitted or top-dose-only effect; inactive means flat fitted curve, though single readings scatter.
Write down the outcome that applies. Available outcomes: 1 (active), -1 (inactive)

Field: example entries. Status: answers known.
{"compound": "Nc1nc2ccccc2n1Cc1ccc(F)cc1", "test target": "NIH3T3", "cat": -1}
{"compound": "O=C1NC(c2ccccc2)(c2ccccc2)C(=O)N1COP(=O)(O)O", "test target": "NIH3T3", "cat": -1}

Q: Outcome? `CC[C@@]1(O)C(=O)OCc2c1cc1n(c2=O)Cc2c-1nc1ccccc1c2/C=N/OC(C)(C)C`
A: 1

Q: Outcome? `Cc1cc(=O)oc2cc(O[C@@H]3SC[C@@H](O)[C@H](O)[C@H]3O)ccc12`
A: -1

Q: Outcome? `CCCc1ncc(C(=O)O)s1`
A: -1

Q: Outcome? `Nc1cc(C(F)(F)F)ccc1S`
A: -1

Q: Outcome? COC(=O)CCCCC(CCSS/C(CCO)=C(\C)N(C=O)Cc1cnc(C)nc1N)SC(C)=O (stereo not given)
A: -1

* * *

System: HeLa
assay summary: Primary qHTS to identify gynecologic anti-cancer compounds using libraries of approved drugs and bioactive compounds (AID 1345084); further: nearly all actives have a fitted effect of over 55% in size
experimental parameters: Gynecologic cancer cell panel viability, ATPlite luminescence, 48 h; series mostly up to 57.5 µM
Inconclusive results are not listed. Activity calls are given as the source filed them. Calls follow the shape of the dose curve; as a rule, active = well fitted cell-killing curve with a large enough effect; inconclusive = small, poorly fitted or top-dose-only effect, or effect the other way; inactive = flat fitted curve, though single readings scatter.
Write down the outcome that applies. Available outcomes: active, inactive

{"compound": "NCC(=O)O", "cat": "inactive"}

Q: Outcome? `C[C@H]1C[C@H]2[C@@H]3CCC4=CC(=O)C=C[C@]4(C)[C@H]3C(=O)C[C@]2(C)[C@@]1(O)C(=O)CO`
A: inactive

Q: Outcome? `Nc1ncnc2nc[nH]c12`
A: inactive

Q: Outcome? `CN(C(=O)C(Cl)Cl)c1ccc(OC(=O)c2ccco2)cc1`
A: inactive

Q: Outcome? O=C1NC2CCCCN2C12CCN(CCCN1c3ccccc3CCc3ccc(Cl)cc31)CC2 (stereo unspecified)
A: inactive

Q: Outcome? O=P(O)(O)OCC(O)CO (stereo unspecified)
A: inactive

Q: Outcome? `CC(=O)c1ccc(O)c(C(N)=O)c1`
A: inactive

Q: Outcome? CCC(C(=O)NC(=O)NC(C)=O)c1ccccc1 (stereo unspecified)
A: inactive

Q: Outcome? `CCc1cccc2c(CCO)c[nH]c12`
A: inactive

* * *

Tested on: MKL-2
assay summary: qHTS assay to identify novel small-molecules to repurpose for Merkel cell carcinoma treatment (AID 1296009); further: nearly all actives have a fitted effect of over 60% in size
experimental parameters: MCC and control cell lines, CellTiter-Glo viability, 72 h; series mostly up to 46 µM
Results filed as inconclusive are left out. Activity calls are given as the source filed them. Calls follow the shape of the dose curve; as a rule, active = well fitted inhibition curve with a large enough effect; inconclusive = small, poorly fitted or top-dose-only effect; inactive = flat fitted curve, though single readings scatter.
Write down the outcome that applies. Available outcomes: yes (active), no (inactive)

Field: example entries. Status: answers known.
{"compound": "NC(=O)NC1N=C([O][Al])NC1=O (stereo not given)", "cat": "no"}
{"compound": "CCN1CCCC1CN (stereo not given)", "cat": "no"}
{"compound": "Cc1cnc(NS(=O)(=O)c2ccc(N)cc2)nc1", "cat": "no"}

Q: Outcome? `O=C(CCCCC(=O)Nc1c(I)cc(I)c(C(=O)O)c1I)Nc1c(I)cc(I)c(C(=O)O)c1I`
A: no

Q: Outcome? `Cc1ccccc1C(=O)N1CC/C(=N\OS(=O)(=O)O)c2ccc(Cl)cc21`
A: no

Q: Outcome? `c1ccc2c(c1)CCc1ccccc1N2`
A: no

Q: Outcome? COc1ccccc1OCC1CNC(=O)O1 (stereo not given)
A: no

Q: Outcome? CC(C)(C)C1CCC(CC2=C(O)c3ccccc3C(=O)C2=O)CC1 (stereo not given)
A: no

Q: Outcome? `O=[N+]([O-])c1ccc(O)c2ncccc12`
A: yes

Q: Outcome? `Cc1nc(N)nc(N)c1-c1ccc(Cl)c(Cl)c1`
A: no
